B1: library; numbered along this chain (parent)
chain: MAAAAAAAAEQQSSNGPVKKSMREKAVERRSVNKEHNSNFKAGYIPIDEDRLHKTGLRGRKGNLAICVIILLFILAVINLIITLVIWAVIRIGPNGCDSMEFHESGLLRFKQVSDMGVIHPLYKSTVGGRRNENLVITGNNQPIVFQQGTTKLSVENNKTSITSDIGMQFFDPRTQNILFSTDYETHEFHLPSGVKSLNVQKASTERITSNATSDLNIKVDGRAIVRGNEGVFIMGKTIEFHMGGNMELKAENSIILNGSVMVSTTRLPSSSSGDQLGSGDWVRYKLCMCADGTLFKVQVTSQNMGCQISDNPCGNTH

variants of: B1; assay: SGCB cell-surface expression functional score (HA stain, bin4 vs bin1, normalised to synonymous) (log10 ratio); higher = more cell-surface SGCB (functional)
Assay Metric: SGCB cell-surface expression functional score (log10)

>  <Changes>
R267Y

>  <Assay Result>
0.2

$$$$
>  <Changes>
A3C

>  <Assay Result>
-0.24

$$$$
>  <Changes>
T182L

>  <Assay Result>
-1.43

$$$$
>  <Changes>
I69G

>  <Assay Result>
0.2

$$$$
>  <Changes>
N15I

>  <Assay Result>
0.04

$$$$
>  <Changes>
P121Q

>  <Assay Result>
-0.72

$$$$
>  <Changes>
G259F

>  <Assay Result>
-0.46

$$$$
>  <Changes>
L179I

>  <Assay Result>
-0.73

$$$$
>  <Changes>
N312K

>  <Assay Result>
0.25

$$$$
>  <Changes>
K159M

>  <Assay Result>
-0.28

$$$$
>  <Changes>
T160A

>  <Assay Result>
-0.29

$$$$
>  <Changes>
S279T

>  <Assay Result>
0.09

$$$$
>  <Changes>
L216F

>  <Assay Result>
-0.42

$$$$
>  <Changes>
V145Q

>  <Assay Result>
-0.39

$$$$
>  <Changes>
M168V

>  <Assay Result>
-0.11

$$$$
>  <Changes>
G259Y

>  <Assay Result>
-1.22

$$$$
>  <Changes>
D275H

>  <Assay Result>
-0.97

$$$$
>  <Changes>
S21Q

>  <Assay Result>
-0.25

$$$$
>  <Changes>
I225H

>  <Assay Result>
0.53

$$$$
>  <Changes>
A2Q

>  <Assay Result>
0.19

$$$$
>  <Changes>
I45S

>  <Assay Result>
-0.08

$$$$
>  <Changes>
P269Y

>  <Assay Result>
0.73

$$$$
>  <Changes>
D292K

>  <Assay Result>
-0.24

$$$$
>  <Changes>
D281Y

>  <Assay Result>
0.16

$$$$
>  <Changes>
Q276L

>  <Assay Result>
-0.3

$$$$
>  <Changes>
R109P

>  <Assay Result>
-1.41

$$$$
>  <Changes>
I256R

>  <Assay Result>
0.05

$$$$
>  <Changes>
F296T

>  <Assay Result>
-0.42

$$$$
>  <Changes>
Q299G

>  <Assay Result>
-0.02

$$$$
>  <Changes>
L216T

>  <Assay Result>
-1.02

$$$$
>  <Changes>
I256S

>  <Assay Result>
0.62

$$$$
>  <Changes>
I90E

>  <Assay Result>
-1.22

$$$$
>  <Changes>
G167V

>  <Assay Result>
-0.99

$$$$
>  <Changes>
Q12C

>  <Assay Result>
-0.19

$$$$
>  <Changes>
A203V

>  <Assay Result>
-0.13

$$$$
>  <Changes>
K111F

>  <Assay Result>
-0.85

$$$$
>  <Changes>
G194E

>  <Assay Result>
-0.09

$$$$
>  <Changes>
L198T

>  <Assay Result>
-2.13

$$$$
>  <Changes>
A8C

>  <Assay Result>
0.27

$$$$
>  <Changes>
D281I

>  <Assay Result>
-0.27

$$$$
>  <Changes>
H190K

>  <Assay Result>
0.07

$$$$
>  <Changes>
H187Y

>  <Assay Result>
-0.18

$$$$
>  <Changes>
H53N

>  <Assay Result>
0.08

$$$$
>  <Changes>
S273E

>  <Assay Result>
0.08

$$$$
>  <Changes>
I162R

>  <Assay Result>
-1.34

$$$$
>  <Changes>
S181R

>  <Assay Result>
-0.87

$$$$
>  <Changes>
I137H

>  <Assay Result>
-1.24

$$$$
>  <Changes>
G274Y

>  <Assay Result>
0.47

$$$$
>  <Changes>
L122D

>  <Assay Result>
0.28

$$$$
>  <Changes>
W87Y

>  <Assay Result>
0

$$$$
>  <Changes>
Q299M

>  <Assay Result>
-0.25

$$$$
>  <Changes>
I70K

>  <Assay Result>
0.19

$$$$
>  <Changes>
S271E

>  <Assay Result>
-0.22

$$$$
>  <Changes>
A224Q

>  <Assay Result>
-0.44

$$$$
>  <Changes>
I69M

>  <Assay Result>
0.22

$$$$
>  <Changes>
P192M

>  <Assay Result>
-1.22

$$$$
>  <Changes>
R30G

>  <Assay Result>
0.59

$$$$
>  <Changes>
I74F

>  <Assay Result>
-0.25

$$$$
>  <Changes>
N316W

>  <Assay Result>
-0.12

$$$$
>  <Changes>
S254P

>  <Assay Result>
-0.77

$$$$
>  <Changes>
D50K

>  <Assay Result>
0.54

$$$$
>  <Changes>
S181Y

>  <Assay Result>
-1.76

$$$$
>  <Changes>
A224H

>  <Assay Result>
-0.71

$$$$
>  <Changes>
Q303S

>  <Assay Result>
-0.43

$$$$
>  <Changes>
R284M

>  <Assay Result>
0.28

$$$$
>  <Changes>
V136C

>  <Assay Result>
-0.25

$$$$
>  <Changes>
F73D

>  <Assay Result>
0.36

$$$$
>  <Changes>
R60Y

>  <Assay Result>
-0.12

$$$$
>  <Changes>
V298F

>  <Assay Result>
-1.04

$$$$
>  <Changes>
Q303C

>  <Assay Result>
0.15

$$$$
>  <Changes>
R30C

>  <Assay Result>
0.31

$$$$
>  <Changes>
F180D

>  <Assay Result>
-1.86

$$$$
>  <Changes>
S271P

>  <Assay Result>
-0.56

$$$$
>  <Changes>
R23K

>  <Assay Result>
-0.04

$$$$
